// provenance: patent US20230192860A1

molecular target: T1, hVISTA-ECD 6-His tag (human, UniProt Q9H7M9 33-193); experiment: SPR; KD at pH 6.9 over KD at pH 6.0 (head prints 7.4)
T1 construct: also called monovalent hVISTA-ECD; human VISTA
T1 sequence (Q9H7M9 other isoform, or with tags, fused parts or gaps limits assumed): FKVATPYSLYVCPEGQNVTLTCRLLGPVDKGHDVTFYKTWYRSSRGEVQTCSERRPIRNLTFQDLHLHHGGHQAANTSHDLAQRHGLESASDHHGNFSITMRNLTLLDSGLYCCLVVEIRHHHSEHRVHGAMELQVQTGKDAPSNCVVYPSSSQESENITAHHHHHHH
readout-label: 7.4 KD/ 6.0 KD
Kindly provide the number alone.

Sample records with 7.4 KD/ 6.0 KD:
# binder, 7.4 KD/ 6.0 KD
data = [
    ("P1-068748 (antibody, human IgG1, kappa, V domains shown, also called P1-068748-6) VH: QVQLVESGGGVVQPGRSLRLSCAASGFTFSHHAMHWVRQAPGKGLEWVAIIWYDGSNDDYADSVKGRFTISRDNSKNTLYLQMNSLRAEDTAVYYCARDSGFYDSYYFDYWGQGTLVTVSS VL: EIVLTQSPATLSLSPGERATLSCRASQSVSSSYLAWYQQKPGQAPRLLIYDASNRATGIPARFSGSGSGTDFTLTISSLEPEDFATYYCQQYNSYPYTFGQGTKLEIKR", 50),
    ("P1-061520 (41F11 VK_A64G) (antibody, V domains shown, also called P1-061520-21; VISTA.4.A64G) VH: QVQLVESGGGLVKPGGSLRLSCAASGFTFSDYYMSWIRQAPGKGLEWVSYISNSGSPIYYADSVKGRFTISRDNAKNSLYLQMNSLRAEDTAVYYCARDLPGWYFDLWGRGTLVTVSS VL: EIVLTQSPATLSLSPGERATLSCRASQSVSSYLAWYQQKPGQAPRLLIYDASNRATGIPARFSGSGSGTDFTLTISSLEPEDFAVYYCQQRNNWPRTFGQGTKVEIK", 0.1),
    ("P1-070976 (41F11_VH_T28P_Y50W_S55E_D95H_L96E_P97E_Y100E; Vk_A64G) (antibody, V domains shown, They look like Kabat positions on the mature VH, but no numbering scheme is stated; also called P1-070976-11) VH: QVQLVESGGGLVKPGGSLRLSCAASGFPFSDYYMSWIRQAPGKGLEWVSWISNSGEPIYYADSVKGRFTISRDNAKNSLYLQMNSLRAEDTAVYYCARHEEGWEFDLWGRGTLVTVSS VL: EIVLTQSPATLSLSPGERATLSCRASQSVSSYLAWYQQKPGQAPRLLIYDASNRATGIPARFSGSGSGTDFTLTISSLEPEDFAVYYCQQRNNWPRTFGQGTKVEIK", 98.2),
]

Lab note: next binder to report on.
7.4 KD/ 6.0 KD in this record for P1-068744 (antibody, human IgG1, kappa, V domains shown, also called P1-068744-7) VH: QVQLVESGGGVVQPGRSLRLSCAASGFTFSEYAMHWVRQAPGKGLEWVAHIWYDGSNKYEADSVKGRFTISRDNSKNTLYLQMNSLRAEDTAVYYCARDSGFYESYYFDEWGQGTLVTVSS VL: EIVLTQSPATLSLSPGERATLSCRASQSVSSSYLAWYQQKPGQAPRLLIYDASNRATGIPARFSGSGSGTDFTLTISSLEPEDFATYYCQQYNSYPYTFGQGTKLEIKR : 958
